target.or.system: T1, human interleukin-2 (recombinant human IL-2, teceleukin) (human, UniProt P60568 21-153)
T1 construct: also called hIL-2; rhIL-2
T1 sequence (P60568 21-153 limits assumed): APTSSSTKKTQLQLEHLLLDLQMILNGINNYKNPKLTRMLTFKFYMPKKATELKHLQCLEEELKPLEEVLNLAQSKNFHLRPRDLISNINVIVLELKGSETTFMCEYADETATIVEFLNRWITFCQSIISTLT
test.details: SPR
Friendly reminder: kon below 500000 M⁻¹ s⁻¹ is Yes, at or above is No.

Example entries begin here.
1) UFKA-22-13 (antibody, human IgG1, V domains shown) VH: EVQLVESGGGLVKPGGSLRLSCAASGFSFSNYAMSWVRQAPGKGLEWVSLISGGGSYSYYPDSLKGRFTISRDSAKNSLYLQMSSLRAEDTAMYYCARHMGYNDYLAWFAYWGQGTLVTVSS VL: DIVMTQSPDSLAVSLGERATINCKSSQSLLNSANQKNYLAWYQQKPGQPPKLLIYFASTRESGVPDRFIGSGSGTDFTLTISSLQAEDVAVYYCQQYYSAPPWTFGGGTKVEIK
No
2) UFKA-22-12 (antibody, human IgG1, V domains shown) VH: EVQLVESGGGLVKPGGSLRLSCAASGFSFSNYAMSWVRQAPGKGLEWVSLISGGGSYSYYPDSLKGRFTISRDNAKNSLYLQMSSLRAEDTAMYYCARHMGYNDYLAWFAYWGQGTLVTVSS VL: DIVMTQSPDSLAVSLGERATINCKSSQSLLNSANQKNYLAWYQQKPGQPPKLLIYFASTRESGVPDRFIGSGSGTDFTLTISSLQAEDVAVYYCQQYYSAPPWTFGGGTKVEIK
Yes

(Q) Say whether its kon is strictly beneath 500000 M⁻¹ s⁻¹. Entry: UFKA-22-10 (antibody, human IgG1, V domains shown) VH: EVQLVESGGGLVKPGGSLRLSCAASGFSFSNYAMSWVRQAPGKGLEWVSLISGGGSYSYYPDSLKGRFTISRDSAKNSLYLQMSSLRAEDTAVYYCARHMGYNDYLAWFAYWGQGTLVTVSS VL: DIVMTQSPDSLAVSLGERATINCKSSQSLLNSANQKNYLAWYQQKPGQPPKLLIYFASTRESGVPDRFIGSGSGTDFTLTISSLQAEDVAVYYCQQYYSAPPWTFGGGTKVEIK
(A) No

(Q) Does the reported kon of the following binder sit strictly below 500000 M⁻¹ s⁻¹? UFKA-22-14 (antibody, human IgG1, V domains shown) VH: EVQLVESGGGLVKPGGSLRLSCAASGFSFSNYAMSWVRQAPGKGLEWVSLISGGGSYSYYPDSLKGRFTISRDNAKNSLYLQMNSLRAEDTAVYYCARHMGYNDYLAWFAYWGQGTLVTVSA VL: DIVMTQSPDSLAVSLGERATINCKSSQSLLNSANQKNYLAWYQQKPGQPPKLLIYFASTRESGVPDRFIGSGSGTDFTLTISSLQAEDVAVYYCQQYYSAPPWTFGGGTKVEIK
(A) No

(Q) Decide: kon of UFKA-22-09 (antibody, human IgG1, V domains shown) VH: EVQLVESGGGLVKPGGSLRLSCAASGFSFSNYAMSWVRQAPGKGLEWVSLISGGGSYSYYPDSLKGRFTISRDNAKNSLYLQMSSLRAEDTAVYYCARHMGYNDYLAWFAYWGQGTLVTVSS VL: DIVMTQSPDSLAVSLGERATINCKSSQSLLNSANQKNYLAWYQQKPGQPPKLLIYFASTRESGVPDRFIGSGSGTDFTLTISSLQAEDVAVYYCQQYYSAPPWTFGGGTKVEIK strictly below 500000 M⁻¹ s⁻¹?
(A) Yes

(Q) Is 500000 M⁻¹ s⁻¹ strictly greater than the binder's reported kon? binder: UFKA-22-11 (antibody, human IgG1, V domains shown) VH: EVQLVESGGGLVKPGGSLRLSCAASGFSFSNYAMSWVRQAPGKGLEWVSLISGGGSYSYYPDSLKGRFTISRDSAKNSLYLQMNSLRAEDTAMYYCARHMGYNDYLAWFAYWGQGTLVTVSS VL: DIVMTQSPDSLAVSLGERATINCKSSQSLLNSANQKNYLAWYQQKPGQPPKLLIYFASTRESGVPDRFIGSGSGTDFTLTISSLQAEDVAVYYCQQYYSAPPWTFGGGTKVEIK
(A) No
